// data source = patent US20250050671A1

Assay: Measurement of solubility of electron-accepting compound to solvent (saturated solution, gravimetric)
Format: physicochemical
Settings: saturated solution at 20° C.±3° C.; isopropyl alcohol
result_type: Solubility, alcohol solvent isopropyl alcohol

INSERT INTO results (compound, test_value) VALUES
  ('Cc1ccc(S(=O)(=O)NC(=O)Nc2cccc(OS(=O)(=O)c3ccc(C)cc3)c2)cc1', '0.4 % by mass'),
  ('Cc1ccc(S(=O)(=O)Oc2cccc(NC(=O)Nc3ccccc3)c2)cc1', '0.8 % by mass'),
  ('Oc1ccc(C2(c3ccc(O)cc3)c3ccccc3-c3ccccc32)cc1 [Electron-Accepting Compound 1, 9,9-Bis(4-hydroxyphenyl)fluorene]', '4.5 % by mass'),
  ('O=S(=O)(c1ccc(O)cc1)c1ccc(O)cc1 [Electron-Accepting Compound 6, 4,4′-sulfonylbisphenol, reference compound]', '34.1 % by mass'),
  ('Cc1ccc(S(=O)(=O)Oc2cccc(NC(=O)Nc3cccc(OS(=O)(=O)c4ccc(C)cc4)c3)c2)cc1', '0.1 % by mass');

* * *

Experiment: Measurement of solubility of electron-accepting compound to solvent (saturated solution, gravimetric)
Assay type: physicochemical
Details: saturated solution at 20° C.±3° C.; methyl ethyl ketone
result_type: Solubility, ketone solvent methyl ethyl ketone (% by mass)

INSERT INTO measurements (compound, test_value) VALUES
  ('Oc1ccc(C2(c3ccc(O)cc3)c3ccccc3-c3ccccc32)cc1 [Electron-Accepting Compound 1, 9,9-Bis(4-hydroxyphenyl)fluorene]', 30.2),
  ('O=S(=O)(c1ccc(O)cc1)c1ccc(O)cc1 [Electron-Accepting Compound 6, 4,4′-sulfonylbisphenol, reference compound]', 36.5),
  ('Cc1ccc(S(=O)(=O)Oc2cccc(NC(=O)Nc3ccccc3)c2)cc1', 8.1),
  ('Cc1ccc(S(=O)(=O)Oc2cccc(NC(=O)Nc3cccc(OS(=O)(=O)c4ccc(C)cc4)c3)c2)cc1', 11.3),
  ('Cc1ccc(S(=O)(=O)NC(=O)Nc2cccc(OS(=O)(=O)c3ccc(C)cc3)c2)cc1', 12.7);

* * *

Reported Solubility, aromatic solvent toluene by item:
Test: Measurement of solubility of electron-accepting compound to solvent (saturated solution, gravimetric)
Assay type: physicochemical
Settings: saturated solution at 20° C.±3° C.; toluene
result_type: Solubility, aromatic solvent toluene (% by mass)

INSERT INTO measurements (molecule, test_value) VALUES
  ('Cc1ccc(S(=O)(=O)Oc2cccc(NC(=O)Nc3ccccc3)c2)cc1', 0.1),
  ('Cc1ccc(S(=O)(=O)Oc2cccc(NC(=O)Nc3cccc(OS(=O)(=O)c4ccc(C)cc4)c3)c2)cc1', 0.1),
  ('Cc1ccc(S(=O)(=O)NC(=O)Nc2cccc(OS(=O)(=O)c3ccc(C)cc3)c2)cc1', 0.1),
  ('O=S(=O)(c1ccc(O)cc1)c1ccc(O)cc1 [Electron-Accepting Compound 6, 4,4′-sulfonylbisphenol, reference compound]', 0.1),
  ('Oc1ccc(C2(c3ccc(O)cc3)c3ccccc3-c3ccccc32)cc1 [Electron-Accepting Compound 1, 9,9-Bis(4-hydroxyphenyl)fluorene]', 0.7);
